molecular target: HLA-A*33:01; assay: IEDB peptide-MHC binding, purified MHC/competitive/radioactivity; filed as Kd, often an IC50 or EC50 that approximates it; bounds were set here for any values at or beyond the usual limits of such assays; settings: source organism: Vaccinia virus WR
property_name: log10 Kd (log10 of the value in µM)
Please interpret these as log10 of Kd where Kd is in µM.

SLNSMYTRLR ... -3.00

Lookup result for "DTIESAKTK" ; measured log10 Kd: 0.56

====

Kd for assorted sequences
molecular target: HLA-B*40:02; test: IEDB peptide-MHC binding, purified MHC/competitive/radioactivity; filed as Kd, often an IC50 or EC50 that approximates it; bounds were set here for any values at or beyond the usual limits of such assays; conditions: source organism: SARS coronavirus Tor2
Give just the number in nM; leave the unit off.

NEYRQYLDA ... 944
AESHMDADLA ... 63.1
KEQLQLLMPL ... 5.23
SDRVVFVLWA ... 16700
FELCDNPFF ... 95.6

// Kd value for "GEVLSLDKL" : 30.7

Memo: "LEGYAFEHIV" , reported Kd: 1790

So, "LEGSISYSEL" ? Its Kd was 156

====

molecular target: HLA-B*51:01; test: IEDB peptide-MHC binding, purified MHC/competitive/radioactivity; filed as Kd, often an IC50 or EC50 that approximates it; bounds were set here for any values at or beyond the usual limits of such assays; details: source organism: Vaccinia virus WR
property_name: Kd

In the examples that follow, each entry is paired with its recorded Kd.
DPSERVFKKI ... ≥ 46.7 µM
RLYDYFTRV ... ≥ 77.5 µM
SLTIKDSSNK ... ≥ 69.6 µM

// field: Kd; key: "SPYYIRKESY" ; value = ≥ 69.6 µM

====

target: HLA-A*02:06; experiment: IEDB peptide-MHC binding, purified MHC/competitive/radioactivity; filed as Kd, often an IC50 or EC50 that approximates it; bounds were set here for any values at or beyond the usual limits of such assays; settings: source organism: Vaccinia virus WR
Catalogue of Kd readings, one per entry.

Examples from the recorded data:
ITLVVISVI ... 1030 nM
IASILSLET ... 318 nM

Given item "NAILHNIYRL" , the value recorded as its Kd is 576 nM

====

biological target: HLA-A*24:02; assay: IEDB peptide-MHC binding, purified MHC/competitive/radioactivity; filed as Kd, often an IC50 or EC50 that approximates it; bounds were set here for any values at or beyond the usual limits of such assays; details: source organism: SARS coronavirus Tor2
property_name: Kd

EFLTRNPAW ... ≥ 84.5 µM
ATSRTLSYY ... ≥ 35.7 µM
GTDLEGKFY ... ≥ 77.6 µM
YIAVNDKALY ... ≥ 70.3 µM
LVAEMDGIQY ... ≥ 70.3 µM

Recorded Kd (sequence "ADAGFMKQY" ): ≥ 77.6 µM

Notebook: "YFTNDVSFL" , Kd read as ≥ 78.1 µM

====

biological target: HLA-A*24:02; assay: IEDB peptide-MHC binding, purified MHC/competitive/radioactivity; filed as Kd, often an IC50 or EC50 that approximates it; bounds were set here for any values at or beyond the usual limits of such assays; details: source organism: Mammarenavirus guanaritoense
pKd: −log10 of the molar value.
pKd overview

YVQRFFLRV ... ≤ 4.58
IRHLFGNYI ... ≤ 4.36

Short answer for "GEKSRCYSLY" : pKd was ≤ 4.15
